cell count values for the molecules below.
PROTOCOL_TEXT: inhibitors of TNFa-induced NFkB p65 translocation, primary screen, imaging, HUVEC, MLSMR starter and 10KST1 sets (AID 438);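 note: compound added about 3h40 before a 20 min TNFalpha stimulation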
CONDITION_NOTES: HUVEC TNFa-induced p65 nuclear translocation; measured here: nuclei count (cytotoxicity indicator), at 2.08 µM
READOUT: cell count

| MOLECULE | OBSERVED_VALUE |
| --- | --- |
| CC(C)(C)OC(=O)N1CCN(c2ccc(NC(=O)c3cc4ccccc4oc3=O)cc2)CC1 | 409 |
| Nc1c(C(=O)NCCc2ccccc2)nnn1Cc1ccccc1 | 564 |
| CCOC(=O)c1c(C)oc2ccc(O)c(CN3CCCCC3)c12 | 376 |
| CC(C)(C)n1nnnc1CN(Cc1ccco1)Cc1cc2cc3c(cc2[nH]c1=O)OCO3 | 667 |
| CCCNC(=O)C1CC(=O)N(c2ccc(OCC(=O)Nc3cc(C)cc(C)c3)cc2)C1 (stereo not drawn) | 591 |
| CC1(C)CC(=O)CC(C)(C)N1OC(=O)c1ccccn1 | 362 |
| Cc1ccc2ncnc(NCCCN3CCOCC3)c2c1 | 339 |
| O=C(Cn1c(C(=O)NCC2CCCO2)cc2sccc21)c1ccccc1 (stereo not drawn) | 280 |
| O=C(CCCCC(=O)NCc1cccs1)NCc1cccs1 | 681 |
| O=C1c2ccccc2C(=O)N1Cc1nc2ccccc2c(=O)n1CCN1CCOCC1 | 383 |
| Cc1nnc2sc(-c3cccc(NC(=O)c4cccnc4)c3)nn12 | 295 |
| COc1ccc(-c2noc(COc3ccc(Cl)c(C)c3)n2)cc1 | 553 |
| COc1cc(OC)c(C(=O)Nc2ncn[nH]2)cc1OC | 667 |

All values here come from PubChem BioAssay.
